System: Gal(b1-4)GlcNAc(b1-3)Gal(b1-4)GlcNAc(b1-3)Gal(b1-4)GlcNAc
Assay method text: glycan array binding signal (z-score within array); higher = stronger binding
Assay context: glycan notation: IUPAC condensed, linker removed
About 410 targets per protein were measured; listed, in parts, are those with the strongest signals and a random draw of the rest.

{"Binder": "CLC (Homo sapiens), Q9UBD9 (protein) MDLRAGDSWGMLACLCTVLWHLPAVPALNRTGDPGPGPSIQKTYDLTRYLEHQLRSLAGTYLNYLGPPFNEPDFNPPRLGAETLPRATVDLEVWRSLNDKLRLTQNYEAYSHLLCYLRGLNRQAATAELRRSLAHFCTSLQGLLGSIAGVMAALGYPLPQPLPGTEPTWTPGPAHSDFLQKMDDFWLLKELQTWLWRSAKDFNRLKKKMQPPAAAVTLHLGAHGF", "glycan array binding signal (z-score)": -0.565}
{"Binder": "EPL1 (Trichoderma atroviride), A0PCX2 (protein) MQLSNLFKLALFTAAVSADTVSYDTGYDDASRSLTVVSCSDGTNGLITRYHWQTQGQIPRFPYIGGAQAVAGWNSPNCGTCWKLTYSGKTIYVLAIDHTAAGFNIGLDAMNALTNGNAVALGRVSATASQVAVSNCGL", "glycan array binding signal (z-score)": 0.071}
{"Binder": "KISKRILTGKK [NK11 (Sus scrofa)]", "glycan array binding signal (z-score)": -0.612}
{"Binder": "Erv46-EDTA (Saccharomyces cerevisiae), P39727 (protein) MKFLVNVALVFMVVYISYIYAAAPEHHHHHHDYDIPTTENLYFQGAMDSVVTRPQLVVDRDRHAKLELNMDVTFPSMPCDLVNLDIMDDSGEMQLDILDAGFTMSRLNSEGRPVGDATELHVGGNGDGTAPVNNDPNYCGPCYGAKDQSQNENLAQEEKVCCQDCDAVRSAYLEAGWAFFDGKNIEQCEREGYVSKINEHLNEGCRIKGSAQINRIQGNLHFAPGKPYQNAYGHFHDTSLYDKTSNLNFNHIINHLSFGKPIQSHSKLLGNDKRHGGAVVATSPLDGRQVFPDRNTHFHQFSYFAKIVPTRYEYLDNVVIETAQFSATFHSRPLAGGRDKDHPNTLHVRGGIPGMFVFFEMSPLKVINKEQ", "glycan array binding signal (z-score)": 0.66}
{"Binder": "Tim-4 (Mus musculus), Q6U7R4 (protein) MSKGLLLLWLVTELWWLYLTPAASEDTIIGFLGQPVTLPCHYLSWSQSRNSMCWGKGSCPNSKCNAELLRTDGTRIISRKSTKYTLLGKVQFGEVSLTISNTNRGDSGVYCCRIEVPGWFNDVKKNVRLELRRATTTKKPTTTTRPTTTPYVTTTTPELLPTTVMTTSVLPTTTPPQTLATTAFSTAVTTCPSTTPGSFSQETTKGSAFTTESETLPASNHSQRSMMTISTDIAVLRPTGSNPGILPSTSQLTTQKTTLTTSESLQKTTKSHQINSRQTILIIACCVGFVLMVLLFLAFLLRGKVTGANCLQRHKRPDNTEDSDSVLNDMSHGRDDEDGIFTL", "glycan array binding signal (z-score)": -0.396}
{"Binder": "Gal 4 (Mus musculus), P56470 (protein) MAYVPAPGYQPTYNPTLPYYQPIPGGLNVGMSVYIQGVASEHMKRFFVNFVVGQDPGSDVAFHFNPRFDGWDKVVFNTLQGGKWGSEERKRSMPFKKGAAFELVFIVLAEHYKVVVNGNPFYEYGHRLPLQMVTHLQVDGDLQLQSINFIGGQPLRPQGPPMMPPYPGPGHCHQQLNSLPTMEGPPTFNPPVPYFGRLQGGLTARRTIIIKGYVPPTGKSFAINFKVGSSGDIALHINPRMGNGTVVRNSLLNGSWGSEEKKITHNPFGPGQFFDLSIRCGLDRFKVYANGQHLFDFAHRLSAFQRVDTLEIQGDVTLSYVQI", "glycan array binding signal (z-score)": -0.171}
{"Binder": "Gal 8 (Mus musculus), Q9JL15 (protein) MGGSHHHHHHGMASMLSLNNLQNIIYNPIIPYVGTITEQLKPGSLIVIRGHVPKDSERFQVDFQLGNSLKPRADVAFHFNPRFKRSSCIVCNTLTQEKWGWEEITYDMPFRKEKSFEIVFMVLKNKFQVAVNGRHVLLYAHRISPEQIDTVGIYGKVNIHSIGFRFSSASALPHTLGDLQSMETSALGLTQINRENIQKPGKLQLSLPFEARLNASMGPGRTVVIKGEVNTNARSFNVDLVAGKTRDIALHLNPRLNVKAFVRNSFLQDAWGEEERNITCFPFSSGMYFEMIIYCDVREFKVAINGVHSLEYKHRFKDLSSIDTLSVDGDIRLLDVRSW", "glycan array binding signal (z-score)": 0.937}
{"Binder": "Gal 3 (Homo sapiens), P17931 (protein) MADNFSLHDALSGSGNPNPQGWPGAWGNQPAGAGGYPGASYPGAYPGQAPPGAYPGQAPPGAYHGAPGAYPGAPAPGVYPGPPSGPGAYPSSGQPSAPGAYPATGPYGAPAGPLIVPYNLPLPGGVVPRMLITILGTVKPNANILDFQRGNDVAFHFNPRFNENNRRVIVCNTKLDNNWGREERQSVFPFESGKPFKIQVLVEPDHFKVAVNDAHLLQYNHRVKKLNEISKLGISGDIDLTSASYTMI", "glycan array binding signal (z-score)": 4.37}
{"Binder": "Gal 12 (Homo sapiens), Q96DT0 (protein) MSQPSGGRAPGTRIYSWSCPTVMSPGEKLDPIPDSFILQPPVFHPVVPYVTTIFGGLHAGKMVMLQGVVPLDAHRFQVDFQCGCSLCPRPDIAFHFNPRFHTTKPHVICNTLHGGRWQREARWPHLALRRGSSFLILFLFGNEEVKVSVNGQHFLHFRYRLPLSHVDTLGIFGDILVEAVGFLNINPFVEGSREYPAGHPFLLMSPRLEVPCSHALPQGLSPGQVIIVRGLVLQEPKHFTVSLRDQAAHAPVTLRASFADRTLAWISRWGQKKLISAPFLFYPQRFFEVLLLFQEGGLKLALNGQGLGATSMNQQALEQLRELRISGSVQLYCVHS", "glycan array binding signal (z-score)": -0.453}
